Target: Somatostatin receptor type 4 (Homo sapiens, UniProt P31391)
Sequence (P31391 whole entry): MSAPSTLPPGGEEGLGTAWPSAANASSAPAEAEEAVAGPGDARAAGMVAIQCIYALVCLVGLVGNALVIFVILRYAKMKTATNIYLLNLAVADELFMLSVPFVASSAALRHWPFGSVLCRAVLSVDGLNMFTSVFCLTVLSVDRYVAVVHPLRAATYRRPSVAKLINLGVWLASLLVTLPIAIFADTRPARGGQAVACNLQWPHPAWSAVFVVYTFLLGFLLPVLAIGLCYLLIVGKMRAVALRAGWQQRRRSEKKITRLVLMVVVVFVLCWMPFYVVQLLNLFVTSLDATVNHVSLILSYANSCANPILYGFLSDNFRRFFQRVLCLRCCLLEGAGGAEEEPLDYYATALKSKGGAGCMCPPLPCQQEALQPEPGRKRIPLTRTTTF
Bridge positions count the residues as written; N and C are the ends. Square brackets hold non-standard residues; d marks the D form. Peptide text beside a SMILES is read from it. Trp(βS-Me) = C[C@@H](c1c[nH]c2ccccc12)[C@H](N)C(=O)O
Readout Name: IC50 (nM)
Numbers only, in nM.

In the examples that follow, each entry is paired with its recorded IC50.
Compound	Readout Name	Assay Value
C[C@@H](O)[C@@H]1NC(=O)[C@H](CCCCN)NC(=O)[C@H]([C@@H](C)c2c[nH]c3ccccc23)NC(=O)[C@H](Cc2ccccc2)NC(=O)[C@H](Cc2ccccc2)NC(=O)[C@@H](NC(=O)[C@@H](N)Cc2ccc(O)cc2)CSSC[C@@H](C(=O)O)NC(=O)[C@H](Cc2ccccc2)NC1=O (H-YCFF[Trp(βS-Me)]KTFC-OH; disulfide 2-9)	IC50	0.9
C[C@@H](O)[C@@H]1NC(=O)[C@H](CCCCN)NC(=O)[C@H]([C@@H](C)c2c[nH]c3ccccc23)NC(=O)[C@H](Cc2ccccc2)NC(=O)[C@H](Cc2ccccc2)NC(=O)[C@@H](N)CSSC[C@@H](C(=O)O)NC(=O)[C@H](Cc2ccccc2)NC1=O (H-CFF[Trp(βS-Me)]KTFC-OH; disulfide 1-8)	IC50	1.8
COC(=O)[C@H](CCCN=C(N)N)NC(=O)CCCc1c(-c2ccccc2)[nH]c2c(F)cc(F)cc12	IC50	4.2
C[C@@H](O)[C@@H]1NC(=O)[C@H](CCCCN)NC(=O)[C@H](Cc2c[nH]c3ccccc23)NC(=O)[C@H](Cc2ccccc2)NC(=O)[C@H](Cc2ccccc2)NC(=O)[C@@H](NC(=O)[C@@H](N)Cc2ccc(O)cc2)CSSC[C@@H](C(=O)O)NC(=O)[C@H](Cc2ccccc2)NC1=O (H-YCFFWKTFC-OH; disulfide 2-9)	IC50	1.6
C[C@@H](O)[C@@H]1NC(=O)[C@H](CCCCN)NC(=O)[C@@H](Cc2c[nH]c3ccccc23)NC(=O)[C@H](Cc2ccc(O)cc2)NC(=O)[C@H](Cc2ccccc2)NC(=O)[C@@H](N)CSSC[C@@H](C(=O)O)NC(=O)[C@H](Cc2ccccc2)NC1=O	IC50	1.8

Query compound follows.
What the record says about C[C@@H](O)[C@@H]1NC(=O)[C@H](CCCCN)NC(=O)[C@H](Cc2c[nH]c3ccccc23)NC(=O)[C@H](Cc2ccccc2)NC(=O)[C@H](Cc2ccccc2)NC(=O)[C@@H](N)CSSC[C@@H](C(=O)O)NC(=O)[C@H](Cc2ccccc2)NC1=O (H-CFFWKTFC-OH; disulfide 1-8) : IC50 is 0.7

###

Numbered stars: 1 amine (or outer) side, 2 acyl side, 3 side chain; on linkers, the order of the positions; unused ones are H or OH. Bridge positions count the residues as written; N and C are the ends. Square brackets hold non-standard residues; d marks the D form. Peptide text beside a SMILES is read from it. X3 = C[C@H](c1c[nH]c2ccccc12)[C@@H](N[*:1])C(=O)[*:2]; Trp(βS-Me) = C[C@@H](c1c[nH]c2ccccc12)[C@H](N)C(=O)O
A set of molecules tested on Somatostatin receptor type 2 (Homo sapiens), with measured IC50:
Give bare numbers, in nM.

Molecule	Readout Name	Unit Abbreviation	Assay Value
C[C@@H](O)[C@@H]1NC(=O)[C@H](CCCCN)NC(=O)[C@H](Cc2c[nH]c3ccccc23)NC(=O)[C@H](CCCN)NC(=O)[C@H](Cc2ccccc2)NC(=O)[C@@H](NC(=O)[C@H](Cc2ccc(O)cc2)NC(N)=O)CSSC[C@@H](C(=O)O)NC(=O)[C@H](Cc2ccccc2)NC1=O	IC50	nM	561

Take each entry in turn and give its IC50.
1. C[C@H](c1c[nH]c2ccccc12)[C@H]1NC(=O)[C@H](Cc2ccccc2)NC(=O)[C@H](Cc2ccccc2)NC(=O)[C@@H](N)CSSC[C@@H](C(=O)O)NC(=O)[C@H](Cc2ccccc2)NC(=O)[C@H]([C@@H](C)O)NC(=O)[C@H](CCCCN)NC1=O (H-CFF[X3]KTFC-OH; disulfide 1-8)
2. C[C@@H](O)[C@@H]1NC(=O)[C@H](CCCCN)NC(=O)[C@H]([C@@H](C)c2c[nH]c3ccccc23)NC(=O)[C@H](Cc2ccccc2)NC(=O)[C@H](Cc2ccccc2)NC(=O)[C@@H](NC(=O)[C@@H](N)Cc2ccc(O)cc2)CSSC[C@@H](C(=O)O)NC(=O)[C@H](Cc2ccccc2)NC1=O (H-YCFF[Trp(βS-Me)]KTFC-OH; disulfide 2-9)

## Output
1: 40; 2: 48
